Ref: patent US20230105029A1

# target-under-test: T1, marmoset monkey IL4Rα-his protein (marmoset monkey)
# T1 construct: Custom made by Sino biological; no cleavage site stated; also called cal-IL4Rα-his; Cal-IL4Rα
# T1 chain: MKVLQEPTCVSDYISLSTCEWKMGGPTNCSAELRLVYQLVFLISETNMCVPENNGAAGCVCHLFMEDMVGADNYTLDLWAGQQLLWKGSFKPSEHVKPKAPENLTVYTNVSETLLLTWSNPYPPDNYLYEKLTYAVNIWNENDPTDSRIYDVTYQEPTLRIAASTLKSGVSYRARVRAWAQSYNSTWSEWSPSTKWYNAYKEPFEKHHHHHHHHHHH
# procedure-details: indirect ELISA on coated cal-IL4Rα-his
readout-name: EC50
Field note: include the unit after the figure.

Q: Tell me the measured EC50 of huC2C1A1A1-V15 (antibody, human IgG4, V domains shown, Humanized, human IgG4/kappa) VH: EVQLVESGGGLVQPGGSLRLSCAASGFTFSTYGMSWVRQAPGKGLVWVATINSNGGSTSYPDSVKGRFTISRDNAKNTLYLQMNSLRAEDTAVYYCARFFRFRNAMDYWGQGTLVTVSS VL: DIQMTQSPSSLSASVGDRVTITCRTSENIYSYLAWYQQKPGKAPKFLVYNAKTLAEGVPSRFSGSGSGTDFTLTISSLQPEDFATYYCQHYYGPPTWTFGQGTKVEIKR , please.
Result: 0.412 nM
